Tested on: T cells stimulated with OKT-3
Test: IL-2 proliferation test (3H-thymidine incorporation into T cells stimulated with OKT-3)
Type: cell-based
Conditions: Homo sapiens, T-cell; Compound [10 μmol]; 45 h incubation, OKT-3 1 μg/ml; read-out: CD3-induced inhibition of proliferation in [%]
Returns one of Met or Not met; Met when inhibition is >= 80%.

Worked examples, 2 molecules total:
Molecule: CC(C)(C)OC(=O)N1c2ccccc2CC1C(=O)Nc1ccncc1 (racemic)
Target Entity: T cells stimulated with OKT-3
Class Name: Not met

Molecule: COC(=O)[C@H](CCCCNC(=O)OC(C)(C)C)NC(=O)C1Cc2ccccc2N1C(=O)C1CCN(C(=O)OC(C)(C)C)CC1 (stereo partly shown)
Target Entity: T cells stimulated with OKT-3
Class Name: Met

inhibition >= 80% for COC(=O)[C@H](CCCCNC(=O)OCc1ccccc1)NC(=O)C1Cc2ccccc2N1C(=O)C1Cc2ccccc2N1C(=O)OC(C)(C)C (stereo partly shown) ? Met

Confirm if inhibition reported for the molecule COC(=O)[C@H](CCCCN)NC(=O)C1Cc2ccccc2N1C(=O)C1Cc2ccccc2N1 (stereo partly shown) is 80% or above. Not met

Item CC(C)(C)OC(=O)N1CCC(C(=O)N2c3ccccc3CC2C(=O)N2CCN(CC(=O)N3CCOCC3)CC2)CC1 (racemic) with inhibition of 80% or above? Not met

Answer whether inhibition of COC(=O)[C@H](CCCCN)NC(=O)C1Cc2ccccc2N1C(=O)C1CCNCC1 (stereo partly shown) is greater than or equal to 80%. Not met

Threshold query (inhibition >= 80%) on COC(=O)[C@H](CCCCNC(=O)OCc1ccccc1)NC(=O)C1Cc2ccccc2N1C(=O)OC(C)(C)C (stereo partly shown) Met

###

Test system: T cells stimulated with OKT-3
Assay: IL-2 proliferation test (3H-thymidine incorporation into T cells stimulated with OKT-3)
Assay type: cell-based
Settings: Homo sapiens, T-cell; Compound [10 μmol]; 45 h incubation, OKT-3 1 μg/ml; read-out: CD3-induced inhibition of proliferation in [%]
Entries annotated with measured inhibition
Express your answer in %, writing the number without its unit.

Below, 3 compounds whose answers are already recorded.
Compound: COC(=O)[C@H](Cc1ccccc1)NC(=O)C1Cc2ccccc2N1C(=O)OC(C)(C)C (stereo partly shown)
inhibition (%): 7

Compound: CC(C)(C)OC(=O)N1c2ccccc2CC1C(=O)N1CCN(CC(=O)N2CCOCC2)CC1 (racemic)
inhibition (%): 9

Compound: COC(=O)[C@H](CCCCNC(=O)OC(C)(C)C)NC(=O)C1Cc2ccccc2N1C(=O)C1Cc2ccccc2N1C(=O)OC(C)(C)C (stereo partly shown)
inhibition (%): 82

Here's the next entry for you.
# lookup: COC(=O)[C@H](CCCCNC(=O)OCc1ccccc1)NC(=O)C1Cc2ccccc2N1C(=O)C1CCN(C(=O)Cc2ccc(OC)cc2)CC1 (stereo partly shown) on T cells stimulated with OKT-3, inhibition = 66

Source: patent US6258815A
